# target: pooled human IgG (human IgG1, 2, 3 and 4) (human); further: test concentration or dose not given here
# assay.protocol: cell-based or functional assay
recorded.metric: Enzyme Activity Endpoint Assay: Fc
Don't forget the unit after the number, please.

QUERY: Recorded Enzyme Activity Endpoint Assay: Fc of PRT-385 (enzyme) MVTSVWTKGVTPPTNFTYGEDVLHAPYVANQGWYDITKTFNGKDDLLCGAATAGNMLHWWFDQNKEQIENYLKKHPEKQKINFNGEQMFDVKEAIDTKDSQLDSKLFEYFKEKAFPYLSTKHLGVFPDHVIDMFINGYRLSLTNHGPTPVKRGSKDPRGGIFDAVFTRGDQSKLLTNRHDFKEKTLKEISDLIKQELTEGKALGISHTYANGRINHVINLWGADFDAEGNLEAIYVTDSDSNASIGMKKYFVGVNSNGKVAISAKEIEEDNIGAQVLGLFTLSTGQDIWNQTN , please.
RESULT: 265 ng/µL

QUERY: Now consider PRT-379 (enzyme) MVTSVWTKGVTPPTNFTYGEDVLHAPYVANQGWYDITKTFNGKDDLLCGAATAGNMLHWWFDQNKEQIENYLKKHPEKQKINFNGEQMFDVKEAIDTKDSQLDSKLFEYFKEKAFPYLSTKHLGVFPDHVIDMFINGYRLSLLNHGPTPVKRGSKDPRGGIFDAVFTRGDQSKLLTNRHDFKEKTLKEISDLIKQELTEGKALGISHTYANVRINHVINLWGADFDAEGNLEAIYVTDSDSNASIGMKKYFVGVNSNGKVAISAKEIEEDNIGAQVLGLFTLSTGQDIWNQTN .
RESULT: 370 ng/µL

QUERY: And the next one, PRT-402 (enzyme) MVTSVWTKGVTPPADFTQGEDVFHAPYVANQGWYDITKTFNGKDDLLCGAATAGNMLHWWFDQNKEYIEAYLKKHPEKQKIMFGDQELLDVRKAINTKGSQKNSELFNYFRDKAFPNLSARRLGVMPDLVLDMFINGYYLNVTKTQTTDVNRTYQEKDKRGGIFDAVFTRGDQSKLLTSRHDFKEKGLKEISDLIKQELTEGKALGLSHTYANVRLNHVINLWGADFDSDGNLKAIYVTDSDSNASIGMKKYFVGVNSAGKVAISAKEIKEDNIGAQVLGLFTLSTGQDIWNQTN ?
RESULT: 342 ng/µL

QUERY: Same question, PRT-403 (enzyme) MVTSVWTKGVTPPADFTQGEDVFHAPYVANQGWYDITKTFNGKDDLLCGAATAGNMLHWWFDQNKEYIEAYLKKHPEKQKIMFGDQELLDVRKAINTKGSQKNSELFNYFRDKAFPNLSARRLGVMPDLVLDMFINGYYLNVTKTQTTDVNRTYQEKDKRGGIFDAVFTRGDQSKLLTSRHDFKEKGLKEISDLIKQELTEGKALGLSHTYANVRISHVINLWGADFDSDGNLKAIYVTDSDSNASIGMKKYFVGVNSAGKVAISAKEIKEDNIGAQVLGLFTLSTGQDIWNQTN this time
RESULT: 332 ng/µL

QUERY: Entry PRT-378 (enzyme) MVTSVWTKGVTPPTNFTYGEDVLHAPYVANQGWYDITKTFNGKDDLLCGAATAGNMLHWWFDQNKEQIENYLKKHPEKQKINFNGEQMFDVKEAIDTKDSQLDSKLFEYFKEKAFPSLSTKHLGVFPDHVIDMFINGYRLSLTNHGPTPVKRGSKDPRGGIFDAVFTRGDQSKLLTNRHDFKEKTLKEISDLIKQELTEGKALGISHTYANVRINHVINLWGADFDAEGNLEAIYVTDSDSNASIGMKKYFVGVNSNGKVAISAKEIEEDNIGAQVLGLFTLSTGQDIWNQTN please
RESULT: 319 ng/µL
